# Study Target: human melanocortin-4 receptor (human, UniProt P32245 1-332)
# Sequence (P32245 whole entry): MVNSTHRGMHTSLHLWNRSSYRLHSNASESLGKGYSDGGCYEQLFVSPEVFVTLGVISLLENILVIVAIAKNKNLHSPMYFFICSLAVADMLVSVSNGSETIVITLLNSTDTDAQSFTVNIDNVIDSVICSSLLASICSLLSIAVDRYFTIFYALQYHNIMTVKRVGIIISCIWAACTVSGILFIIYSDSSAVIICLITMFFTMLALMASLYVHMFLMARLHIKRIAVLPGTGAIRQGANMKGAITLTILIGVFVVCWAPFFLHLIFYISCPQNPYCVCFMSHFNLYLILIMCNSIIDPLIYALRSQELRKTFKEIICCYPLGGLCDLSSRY
# Experimental Protocol: cell-based or functional assay
Positions of bridges follow the written chain, without caps; N, C: chain ends. Non-standard residues stand in square brackets, D forms with d. dPhe(3,4,5-F3) = N[C@H](Cc1cc(F)c(F)c(F)c1)C(=O)O; dPhe(3,4-F2) = N[C@H](Cc1ccc(F)c(F)c1)C(=O)O; dPhe(3,5-F2) = N[C@H](Cc1cc(F)cc(F)c1)C(=O)O; dPhe(4-CN) = N#Cc1ccc(C[C@@H](N)C(=O)O)cc1; dPhe(3-Cl) = N[C@H](Cc1cccc(Cl)c1)C(=O)O; dPhe(3-Me) = Cc1cccc(C[C@@H](N)C(=O)O)c1; dPhe(2-Me) = Cc1ccccc1C[C@@H](N)C(=O)O; dPhe(4-F) = N[C@H](Cc1ccc(F)cc1)C(=O)O; dPhe(2-F) = N[C@H](Cc1ccccc1F)C(=O)O; Orn = NCCC[C@H](N)C(=O)O
// reported Intrinsic Activity, cAMP, 0.1 ng/mL Doxycycline for each item listed
Endpoint: Intrinsic Activity, cAMP, 0.1 ng/mL Doxycycline

| Binder | Result |
| --- | --- |
| Ac-RET[dPhe(4-CN)]RW[Orn]-NH2 (lactam 2-7; SMILES CC(=O)N[C@@H](CCCNC(=N)N)C(=O)N[C@H]1CCC(=O)NCCC[C@@H](C(N)=O)NC(=O)[C@H](Cc2c[nH]c3ccccc23)NC(=O)[C@H](CCCNC(=N)N)NC(=O)[C@@H](Cc2ccc(C#N)cc2)NC(=O)[C@H]([C@@H](C)O)NC1=O, also called No. 44) [Ac-Arg-cyclo(Glu-Thr-D-Phe(4-CN)-Arg-Trp-Orn)-NH2] | 22% |
| Ac-RET[dPhe(3-Cl)]RW[Orn]-NH2 (lactam 2-7; SMILES CC(=O)N[C@@H](CCCNC(=N)N)C(=O)N[C@H]1CCC(=O)NCCC[C@@H](C(N)=O)NC(=O)[C@H](Cc2c[nH]c3ccccc23)NC(=O)[C@H](CCCNC(=N)N)NC(=O)[C@@H](Cc2cccc(Cl)c2)NC(=O)[C@H]([C@@H](C)O)NC1=O, also called No. 36) [Ac-Arg-cyclo(Glu-Thr-D-Phe(3-Cl)-Arg-Trp-Orn)-NH2] | 8% |
| Ac-R[Orn]N[dPhe(2-Me)]RWE-NH2 (lactam 2-7, also called No. 74) [Ac-Arg-cyclo(Orn-Asn-D-Phe(2-Me)-Arg-Trp-Glu)-NH2] | 68% |
| Ac-R[Orn]Q[dPhe(3,4,5-F3)]RWE-NH2 (lactam 2-7) [Ac-Arg-cyclo(Orn-Gln-D-Phe(3,4,5-triF)-Arg-Trp-Glu)-NH2] | 47% |
| Ac-R[Orn]N[dPhe(3,4-F2)]RWE-NH2 (lactam 2-7, also called No. 75) [Ac-Arg-cyclo(Orn-Asn-D-Phe(3,4-diF)-Arg-Trp-Glu)-NH2] | 43% |
| Ac-RES[dPhe(4-F)]RW[Orn]-NH2 (lactam 2-7; SMILES CC(=O)N[C@@H](CCCNC(=N)N)C(=O)N[C@H]1CCC(=O)NCCC[C@@H](C(N)=O)NC(=O)[C@H](Cc2c[nH]c3ccccc23)NC(=O)[C@H](CCCNC(=N)N)NC(=O)[C@@H](Cc2ccc(F)cc2)NC(=O)[C@H](CO)NC1=O, also called No. 65) [Ac-Arg-cyclo(Glu-Ser-D-Phe(4-F)-Arg-Trp-Orn)-NH2] | 58% |
| Ac-R[Orn]N[dPhe(3-Me)]RWE-NH2 (lactam 2-7, also called No. 72) [Ac-Arg-cyclo(Orn-Asn-D-Phe(3-Me)-Arg-Trp-Glu)-NH2] | 11% |
| Ac-REQ[dPhe(2-F)]RW[Orn]-NH2 (lactam 2-7, also called No. 59) [Ac-Arg-cyclo(Glu-Gln-D-Phe(2-F)-Arg-Trp-Orn)-NH2] | 90% |
| Ac-REN[dPhe(4-CN)]RW[Orn]-NH2 (lactam 2-7; also: acetate salt, acetate salt form; also called Ex 43) [Ac-Arg-cyclo(Glu-Asn-D-Phe(4-CN)-Arg-Trp-Orn)-NH2] | 43% |
| Ac-REP[dPhe(2-F)]RW[Orn]-NH2 (lactam 2-7; SMILES CC(=O)N[C@@H](CCCNC(=N)N)C(=O)N[C@H]1CCC(=O)NCCC[C@@H](C(N)=O)NC(=O)[C@H](Cc2c[nH]c3ccccc23)NC(=O)[C@H](CCCNC(=N)N)NC(=O)[C@@H](Cc2ccccc2F)NC(=O)[C@@H]2CCCN2C1=O, also called No. 66) [Ac-Arg-cyclo(Glu-Pro-D-Phe(2-F)-Arg-Trp-Orn)-NH2] | 32% |
| Ac-REQ[dPhe(3-Cl)]RW[Orn]-NH2 (lactam 2-7, also called No. 38) [Ac-Arg-cyclo(Glu-Gln-D-Phe(3-Cl)-Arg-Trp-Orn)-NH2] | 31% |
| Ac-REQ[dPhe(4-F)]RW[Orn]-NH2 (lactam 2-7, also called No. 92) [Ac-Arg-cyclo(Glu-Gln-D-Phe(4-F)-Arg-Trp-Orn)-NH2] | 81% |
| RDPXRWK (N-terminal Ac; D-Phe(2-F) 4; lactam Asp 2-Lys 7; C-terminal NH2) [Ac-Arg-cyclo(Asp-Pro-D-Phe(2-F)-Arg-Trp-Lys)-NH2] | 16% |
| Ac-REN[dPhe(3,5-F2)]RW[Orn]-NH2 (lactam 2-7, also called No. 76) [Ac-Arg-cyclo(Glu-Asn-D-Phe(3,5-diF)-Arg-Trp-Orn)-NH2] | 53% |
| Ac-R[Orn]N[dPhe(4-CN)]RWE-NH2 (lactam 2-7, also called No. 91) [Ac-Arg-cyclo(Orn-Asn-D-Phe(4-CN)-Arg-Trp-Glu)-NH2] | 18% |
| Ac-REE[dPhe(4-CN)]RW[Orn]-NH2 (lactam 2-7; SMILES CC(=O)N[C@@H](CCCNC(=N)N)C(=O)N[C@H]1CCC(=O)NCCC[C@@H](C(N)=O)NC(=O)[C@H](Cc2c[nH]c3ccccc23)NC(=O)[C@H](CCCNC(=N)N)NC(=O)[C@@H](Cc2ccc(C#N)cc2)NC(=O)[C@H](CCC(=O)O)NC1=O) [Ac-Arg-cyclo(Glu-Glu-D-Phe(4-CN)-Arg-Trp-Orn)-NH2] | 3% |
